tested on: THP-1 viability, CellTiter-Glo luminescence, 72 h; assay: THP-1 cell cytotoxicity, dose response, cytotoxicity control for Salmonella PhoP regulon inhibitors, S. typhimurium screen hits (AID 2253)
readout_label: EC50

N#CC1=C(N)N=C(SCc2cccc3ccccc23)C(C(N)=O)C12CCCCC2 (stereo not given): 20.9 µM
C/C(CC(=O)Nc1ccc(Cl)c(C(F)(F)F)c1)=N\NC(=O)c1ccccc1O: 20.4 µM
COc1ccc(OC)c(C2=Nn3c(nnc3-c3cc(OC)c(OC)c(OC)c3)SC2)c1: 22.6 µM
Oc1ccc(N2CCN(Cc3ccc(OCCCN4CCCCC4)cc3)CC2)cc1: 29.5 µM

Here is the next item to consider.
## Input Annotate the compound O=C(O)C1Nc2c(O)cccc2C2C=CCC12 (stereo not given) with its measured EC50.
## Output 22.6 µM

----------
test system: THP-1 viability, CellTiter-Glo luminescence, 72 h; test: THP-1 cell cytotoxicity, dose response, cytotoxicity control for Salmonella PhoP regulon inhibitors, S. typhimurium screen hits (AID 2253)
Known EC50 of a selection of compounds

Before answering, review these 6 worked examples.
COc1ccc2c(c1)nc(N)n2Cc1ccccc1: 46.3 µM
O=C(/C=C/c1ccccc1Cl)c1ccccc(=O)c1O: 12.6 µM
C/C(=N/Nc1nc(-c2ccccc2)cc(-c2ccc(F)cc2)n1)c1cccc(N)c1: 18.1 µM
CC(CO)(CO)NCc1ccc(-c2ccccc2)cc1: 15 µM
c1ccc(CN2CCN(c3nc(NCc4ccco4)c4ccccc4n3)CC2)cc1: 20.6 µM
C#CCOCCOCCOCCNc1nc(N2CCN(C(=O)CCCCCCCCCCNC(=O)[C@H]([C@@H](C)CC)n3cc(CCCCN=C(N)N)nn3)CC2)nc(N2CCN(C(=O)CCCCCCCCCCNC(=O)[C@H](CCCN=C(N)N)n3cc(C[C@@H](C)CC)nn3)CC2)n1: 3.57 µM

## Input Look up and state reported EC50 for O=C(N/N=C/c1cc2c3c(c1O)CCCN3CCC2)c1ccccc1O
## Output 3.56 µM

## Input Give the reported value of EC50 for this record: COc1cccc(-n2c(SCc3cc(=O)oc4cc(O)c(O)cc34)nc3ccccc3c2=O)c1
## Output 15.1 µM

## Input Fill in reported EC50 for this entry: N#CC1=C(N)Oc2c(O)cc3ccccc3c2C1c1ccsc1 (centres undefined)
## Output 21.3 µM

----------
test system: THP-1 viability, CellTiter-Glo luminescence, 72 h; assay: THP-1 cell cytotoxicity, dose response, cytotoxicity control for Salmonella PhoP regulon inhibitors, S. typhimurium screen hits (AID 2253)
# pEC50 per entry
Value format note: pEC50 is -log10 of concentration (mol/L); just state the number.

Cc1[nH]n(-c2ccccc2)c(=O)c1/C=N/Nc1nncc(-c2ccccc2)n1: 6.24
COc1cc(NC(=O)Nc2cccc(Cl)c2)c(OC)cc1NC(=O)CN1CCCCC1: 4.81
CNc1nc(-c2ccccn2)nnc1-c1ccccc1: 5.08
O=C(NNc1nc(-c2ccccc2)cs1)c1ccccc1: 4.58
CCCCCCCCCCCCCCCC[N+](C)(C)CCN(Cc1ccc(OC)cc1)c1ncccn1: 6.29

Would you kindly look at the next entry?
## Input Give the measured pEC50 for CN(c1cccc(Cl)c1)S(=O)(=O)c1cccc(C(=O)Nc2nc3ccccc3[nH]2)c1
## Output 4.88

----------
test system: THP-1 viability, CellTiter-Glo luminescence, 72 h; experiment: THP-1 cell cytotoxicity, dose response, cytotoxicity control for Salmonella PhoP regulon inhibitors, S. typhimurium screen hits (AID 2253)
readout_label: EC50

Completed entries (count: 10):
O=c1ccc2ccc(Oc3ccc([N+](=O)[O-])cc3[N+](=O)[O-])cc2o1: 7.86 µM
Cc1cc(-c2nnc(-c3ccccc3)c(-c3ccccc3)n2)c(C)o1: 40.3 µM
Cc1cc(C(=O)N/N=C/c2ccc(O)c(O)c2O)c(C)n1-c1ccccc1: 4.48 µM
CCCC(=O)NC(c1cccs1)c1cc([N+](=O)[O-])c2cccnc2c1O (configuration not stated): 7.09 µM
O=C(NCc1ccco1)c1cccc(Nc2nc3ccc(Br)cc3[nH]2)c1: 44.6 µM
Cc1ccc(O)c(-c2cc(-c3cccc(F)c3)n[nH]2)c1: 18.2 µM
O=C(CN1CC(c2ccccc2)CC1=O)N/N=C/c1cc(Br)ccc1O (configuration not stated): 3.74 µM
CC(C(=O)Nc1cc([N+](=O)[O-])ccc1Cl)N1CCN(c2ccccc2O)CC1 (configuration not stated): 25.6 µM
OCCN1CCN(Cc2cc(Cl)c3cccnc3c2O)CC1: 12 µM
Cn1c(NCc2cc(Br)ccc2O)nc2ccccc21: 37.5 µM

## Input Using known records, supply EC50 for Cc1ccc(-c2cc(-c3ccc(Cl)cc3)c(C#N)c(N)n2)o1
## Output 26.2 µM

## Input Return EC50 (reported value) for this compound: O=C(N/N=C/c1ccc(F)cc1)c1cc(-c2ccco2)nc2ccccc12
## Output 37.9 µM

## Input Complete the entry with EC50 for COc1ccc(C(C[N+](=O)[O-])C2(c3ccc(OC)c(OC)c3)C(=O)c3ccccc3C2=O)cc1 (configuration not stated)
## Output 12.5 µM

## Input Please list EC50 recorded for the compound OC(c1cc(-c2ccc(C(F)(F)F)cc2)nc(C(F)(F)F)c1)C1CCCCN1 (configuration not stated)
## Output 6.15 µM

## Input Respond only with EC50 recorded for C=CCNc1ncnc2c1[nH]c1ccccc12
## Output 46 µM

## Input Return reported EC50. Input compound: COc1ccc(OC)c(/C=N/NC(=O)c2cc3c(OC)c(OC)ccc3[nH]2)c1
## Output 43.8 µM

----------
# reported EC50; entries follow
test system: THP-1 viability, CellTiter-Glo luminescence, 72 h; assay: THP-1 cell cytotoxicity, dose response, cytotoxicity control for Salmonella PhoP regulon inhibitors, S. typhimurium screen hits (AID 2253)

Examples with answers:
CCCCCOc1ccc(CSC(=N)N)cc1[N+](=O)[O-]: 7.91 µM
Clc1ccc(Nc2ccc(NCc3ccccc3)nn2)cc1: 21.3 µM
O=C(Nc1cccc(N=Cc2cc(Br)cc(Br)c2O)c1)c1ccco1: 38.5 µM
Cc1ccc(S(=O)(=O)c2c(C(=O)c3ccccc3)cnc3cc4c(cc23)OCCO4)cc1: 30.2 µM
O=C(CSCc1ccccc1)N/N=C/c1ccccc1OCc1ccccc1: 46.6 µM

## Input For the molecule CCOc1ccccc1NS(=O)(=O)c1ccc(Br)s1 , give its reported EC50.
## Output 40.5 µM

## Input Output EC50 of CCOC(=O)c1ccc(-c2ccc(C3Nc4ccccc4C(=O)N3O)o2)cc1 (stereo not drawn)
## Output 9.38 µM

## Input Recall and state the measured EC50 for C=CCc1ccccc1OCC(O)CN1CCN(CCN2C(=O)c3cccc4cccc(c34)C2=O)CC1 (stereo not drawn) .
## Output 16.8 µM

## Input Quickly give me recorded EC50 for N=c1n(Cc2ccccc2)c2ccccc2n1CC(O)COc1ccc(Cl)cc1Cl (stereo not drawn)
## Output 2.91 µM

## Input Quick one: give measured EC50 for Cc1ccc(C(=O)N/N=C/c2cc(Br)ccc2O)cn1
## Output 1.78 µM

----------
tested on: THP-1 viability, CellTiter-Glo luminescence, 72 h; assay: THP-1 cell cytotoxicity, dose response, cytotoxicity control for Salmonella PhoP regulon inhibitors, S. typhimurium screen hits (AID 2253)
readout_label: EC50

Please review the entries below; each comes with its answer.
CN(C)c1ccc([C@@H]2[C@@H]([N+](=O)[O-])[C@H]3C=Cc4ccccc4N3[C@H]2C(=O)c2ccc(Cl)cc2)cc1: 20.6 µM
Fc1ccc(Nc2nc(NCc3ccco3)c3ccccc3n2)cc1: 6.54 µM
O=[N+]([O-])c1cc(O)c2ncccc2c1: 6.48 µM
c1ccc(Nc2ccnc(Nc3ccccc3)n2)cc1: 35 µM
C/C(=C\C(=O)c1cccnc1)Nc1ccc(O)cc1: 47.6 µM

## Input Identify EC50 associated with the molecule CCCCCCCCCn1c2c(c(=N)c3c1CCC3)CCC2
## Output 0.42 µM

## Input Quickly give me recorded EC50 for CCCCCCCCn1c2c(c(=N)c3c1CCC3)CCCC2
## Output 0.78 µM

## Input Output measured EC50 for this item: S=C(Nc1cccc(Cl)c1)Nc1cccc2cnccc12
## Output 19 µM

----------
tested on: THP-1 viability, CellTiter-Glo luminescence, 72 h; experiment: THP-1 cell cytotoxicity, dose response, cytotoxicity control for Salmonella PhoP regulon inhibitors, S. typhimurium screen hits (AID 2253)
Recorded EC50 by entry

Recorded results for 2 molecules are shown here.
Cc1ccc(O)c(-c2cc(-c3ccccc3C)[nH]n2)c1: 19.9 µM
Cc1ccc(Nc2nc(NCc3ccco3)c3ccccc3n2)cc1: 4.34 µM

## Input Answer with the recorded EC50 for the molecule listed here: CN(C)CCCNc1cc(C(C)(C)C)nc2c(-c3ccccc3)cnn12
## Output 9.26 µM

## Input State its EC50 for this molecule: CCOc1ccc(Nc2nc(N)c3ccccc3n2)cc1
## Output 7.05 µM

## Input Name the recorded EC50 of the item C/C(=N\NC(=O)c1cc2ccccc2cc1O)c1ccccn1 in your answer.
## Output 0.76 µM

## Input Note EC50 for the molecule shown: COc1ccc(C(=O)N2CCc3cc(OC)c(OC)cc3C2)cc1OC
## Output 36.7 µM

## Input Look up and report measured EC50 for this entry: O=[N+]([O-])c1ccc(O)c(/C=N/Nc2ccccn2)c1
## Output 0.42 µM

## Input Read the entry Oc1c(CN2CCOCC2)cc(COCc2ccccc2)c2cccnc12 and write its reported EC50.
## Output 3.1 µM

## Input Supply measured EC50 of O=C(OCC1O[C@@H](OC(=O)c2cc(O)c(O)c(O)c2)[C@@H](OC(=O)c2cc(O)c(O)c(O)c2)[C@@H](OC(=O)c2cc(O)c(O)c(O)c2)[C@@H]1OC(=O)c1cc(O)c(O)c(O)c1)c1cc(O)c(O)c(O)c1 (stereo partly specified) in your reply.
## Output 14 µM

## Input Item CCOc1ccc(-n2c(SCc3nc(-c4ccc(C)cc4)no3)nnc2-c2ccncc2)cc1 : provide EC50
## Output 28.3 µM

## Input Annotate the molecule NC1=NC[C@H](Cc2ccc(O)cc2)N1CCC12CC3CC(CC(C3)C1)C2 with its measured EC50.
## Output 10.6 µM
